target: Akt1 (Homo sapiens, UniProt P31749); test: Akt1 inhibition, Z'-LYTE kit fluorescent-enzymatic assay; assay type: biochemical; conditions: Table 1; read-out: IC50
Sequence (P31749 whole entry): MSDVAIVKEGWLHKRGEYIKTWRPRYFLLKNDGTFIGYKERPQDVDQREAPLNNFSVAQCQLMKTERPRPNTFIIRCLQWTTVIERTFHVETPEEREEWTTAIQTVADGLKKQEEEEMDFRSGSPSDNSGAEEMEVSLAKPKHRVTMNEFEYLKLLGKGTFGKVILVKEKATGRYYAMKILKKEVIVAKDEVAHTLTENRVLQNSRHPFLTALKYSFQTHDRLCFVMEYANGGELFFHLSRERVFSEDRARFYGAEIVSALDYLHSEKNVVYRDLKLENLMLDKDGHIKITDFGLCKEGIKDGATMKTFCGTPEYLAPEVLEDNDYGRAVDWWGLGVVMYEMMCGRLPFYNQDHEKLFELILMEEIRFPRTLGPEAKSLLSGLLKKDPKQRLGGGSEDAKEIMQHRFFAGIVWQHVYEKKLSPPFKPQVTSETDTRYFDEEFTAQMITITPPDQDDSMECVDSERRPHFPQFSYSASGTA
pIC50: −log10 of the molar value.

Input smiles | Target or system | pIC50
CC1=C(C#N)c2nc(N)c(C#N)c(C)c2/C1=C/c1ccc(-c2ccc(C(=O)O)c(Cl)c2)o1 | Akt1 (Homo sapiens, UniProt P31749) | 5.59

----------
experiment: Initial MTD assays; details: in vivo, 5 mg/kg; data not shown; read-out: dose at which MTD assays revealed toxicity

Input smiles | Unit text | MTD
O=C(/C=C/c1nc2ccccc2[nH]1)c1c(O)nc2ccc(Cl)cc2c1-c1ccccc1 | mg/kg | 5
